Parameter Ki, tested on Arabidopsis HPPD (Arabidopsis thaliana, UniProt P93836), listed per item.
Sequence (P93836 whole entry): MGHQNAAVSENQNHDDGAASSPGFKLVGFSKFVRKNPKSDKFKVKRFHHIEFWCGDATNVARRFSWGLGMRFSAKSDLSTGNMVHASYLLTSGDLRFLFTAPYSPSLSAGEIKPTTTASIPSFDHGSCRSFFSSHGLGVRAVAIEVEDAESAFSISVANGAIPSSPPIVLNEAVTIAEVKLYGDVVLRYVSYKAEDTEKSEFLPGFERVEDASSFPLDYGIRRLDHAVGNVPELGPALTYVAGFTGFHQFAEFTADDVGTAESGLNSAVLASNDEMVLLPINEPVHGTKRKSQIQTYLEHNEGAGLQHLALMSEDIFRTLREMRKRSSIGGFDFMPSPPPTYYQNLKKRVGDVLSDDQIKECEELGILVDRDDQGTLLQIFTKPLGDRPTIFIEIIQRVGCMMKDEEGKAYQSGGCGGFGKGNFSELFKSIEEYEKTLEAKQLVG

**Query** State recorded Ki with Arabidopsis HPPD (Arabidopsis thaliana, UniProt P93836), entry O=S1(=O)C(c2ccc(Cl)cc2Cl)=C(O)c2ncccc2N1CC(F)F [Inhibitor 2] , no comment.
**Result** 13 nM

**Query** Give reported Ki for Cc1c(C(=O)c2cnn(C)c2O)ccc(S(C)(=O)=O)c1C1=NOCC1 [Topramezone, reference compound] (Arabidopsis HPPD (Arabidopsis thaliana, UniProt P93836))
**Result** 4 nM

**Query** Under Arabidopsis HPPD (Arabidopsis thaliana, UniProt P93836): report Ki of CC1=NOC(c2c(Cl)ccc(C3=C(O)c4ncccc4N(CC(F)F)S3(=O)=O)c2Cl)C1 (stereo not drawn) [Inhibitor 1] .
**Result** 3 nM

* * *

subject.of.test: Arabidopsis HPPD variant Q293H (Arabidopsis thaliana, UniProt P93836, Q293H)
Construct: His6 (N)
Sequence (P93836 whole entry Q293H): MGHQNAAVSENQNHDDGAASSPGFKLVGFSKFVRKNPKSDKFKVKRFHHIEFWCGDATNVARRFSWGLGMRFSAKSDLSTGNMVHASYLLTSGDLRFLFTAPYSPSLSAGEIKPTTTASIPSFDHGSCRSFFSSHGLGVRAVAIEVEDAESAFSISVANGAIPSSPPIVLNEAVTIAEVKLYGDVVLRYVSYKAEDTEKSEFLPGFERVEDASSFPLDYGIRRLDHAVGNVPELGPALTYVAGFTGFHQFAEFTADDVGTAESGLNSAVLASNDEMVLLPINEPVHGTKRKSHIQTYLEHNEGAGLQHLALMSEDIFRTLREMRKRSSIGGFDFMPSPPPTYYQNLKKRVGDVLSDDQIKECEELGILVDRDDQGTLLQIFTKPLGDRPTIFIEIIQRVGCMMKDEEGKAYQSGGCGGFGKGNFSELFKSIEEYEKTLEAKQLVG
procedure.summary: HPPD activity assay, mutant enzyme
Would you mind telling me the reported Ki of each entry?
# output: number + unit

**Query** Look up and report measured Ki for this entry: Cc1c(C(=O)c2cnn(C)c2O)ccc(S(C)(=O)=O)c1C1=NOCC1 [Topramezone, reference compound]
**Result** 14 nM

**Query** Report measured Ki; entry is `O=S1(=O)C(c2ccc(Cl)cc2Cl)=C(O)c2ncccc2N1CC(F)F`
**Result** 19 nM

**Query** Tell me measured Ki for CC1=NOC(c2c(Cl)ccc(C3=C(O)c4ncccc4N(CC(F)F)S3(=O)=O)c2Cl)C1 (stereo not drawn) please.
**Result** 23 nM

* * *

Hi there, I'd appreciate the recorded pIC50 for every entry that follows.
System: Chlamydomonas strain CMr15
procedure.summary: Growth inhibition of Chlamydomonas strains (tolerance)
Type: cell-based, Chlamydomonas reinhardtii
condition.notes: read-out: IC50 of growth inhibition
Scale: negative log10 of molar concentration, which is what pIC50 denotes.

**Query** Complete the entry with pIC50 for Cc1c(C(=O)c2cnn(C)c2O)ccc(S(C)(=O)=O)c1C1=NOCC1 [Topramezone, reference compound]
**Result** 3.64

**Query** Report measured pIC50; entry is CS(=O)(=O)c1ccc(C(=O)C2C(=O)CCCC2=O)c([N+](=O)[O-])c1 [Mesotrione, reference compound]
**Result** 3.27

* * *

System: Chlamydomonas strain CMr15
procedure.summary: Growth inhibition of Chlamydomonas strains (tolerance)
Format: cell-based, Chlamydomonas reinhardtii
condition.notes: strain CMr15, read-out: IC50 of growth inhibition
pIC50: −log10 of the molar value.
metric.name: pIC50

**Query** Item Cc1c(-c2c(O)c3ncccc3oc2=O)ccc(S(C)(=O)=O)c1C1=NOC(C)C1 (stereo not shown) : provide pIC50
**Result** < 3.00

* * *

subject.of.test: Chlamydomonas HPPD1 (Chlamydomonas reinhardtii, UniProt A0A2K3DET7)
Sequence (A0A2K3DET7 entry or part of it): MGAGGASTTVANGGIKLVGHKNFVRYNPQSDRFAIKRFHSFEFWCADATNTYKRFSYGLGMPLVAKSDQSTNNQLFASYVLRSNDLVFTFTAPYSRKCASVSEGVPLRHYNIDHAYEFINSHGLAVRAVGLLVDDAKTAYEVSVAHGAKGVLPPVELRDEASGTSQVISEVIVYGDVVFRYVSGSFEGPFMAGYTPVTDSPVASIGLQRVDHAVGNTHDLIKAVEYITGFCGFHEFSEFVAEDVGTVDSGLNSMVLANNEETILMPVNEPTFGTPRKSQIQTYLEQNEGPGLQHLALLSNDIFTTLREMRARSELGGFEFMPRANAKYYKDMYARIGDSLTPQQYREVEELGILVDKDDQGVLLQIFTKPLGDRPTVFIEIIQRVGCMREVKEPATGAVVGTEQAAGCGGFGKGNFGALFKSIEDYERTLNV
Could you please report measured pKi for the items listed next?
To interpret pKi, take it as minus log10 of a concentration measured in moles per litre.

**Query** Dear colleague, please send me the reported pKi for CC1=NOC(c2c(Cl)ccc(C3=C(O)c4ncccc4N(CC(F)F)S3(=O)=O)c2Cl)C1 (stereo not drawn) when you can.
**Result** 7.54

**Query** Report pKi, nothing else, for this compound: `O=S1(=O)C(c2ccc(Cl)cc2Cl)=C(O)c2ncccc2N1CC(F)F`
**Result** 6.86

**Query** Consider the compound Cc1c(C(=O)c2cnn(C)c2O)ccc(S(C)(=O)=O)c1C1=NOCC1 [Topramezone, reference compound] and give its recorded pKi.
**Result** 7.42

* * *

subject.of.test: Arabidopsis HPPD variant P336A E363Q (Arabidopsis thaliana, UniProt P93836, E363Q/P336A)
Construct: His6 (N)
Sequence (P93836 whole entry P336A/E363Q): as the sequence (P93836 whole entry Q293H) above, with H293Q, P336A, E363Q counted along it
procedure.summary: HPPD activity assay, mutant enzyme
metric.name: Ki (nM)
Report only the number, with the unit nM understood.

**Query** Given the molecule CC1=NOC(c2c(Cl)ccc(C3=C(O)c4ncccc4N(CC(F)F)S3(=O)=O)c2Cl)C1 (stereo not shown) , write its reported Ki.
**Result** 13

* * *

subject.of.test: Arabidopsis HPPD variant L385V (Arabidopsis thaliana, UniProt P93836, L385V)
Construct: His6 (N)
Sequence (P93836 whole entry L385V): as the sequence (P93836 whole entry) above, with L385V counted along it
procedure.summary: HPPD activity assay, mutant enzyme
metric.name: pKi
pKi field: float, defined as -log10 of concentration (mol/L).

**Query** Supply pKi value. Item: CC1=NOC(c2c(Cl)ccc(C3=C(O)c4ncccc4N(CC(F)F)S3(=O)=O)c2Cl)C1 (stereo not shown)
**Result** 7.72

* * *

subject.of.test: Arabidopsis HPPD variant M335N (Arabidopsis thaliana, UniProt P93836, M335N)
Construct: His6 (N); made in house; host or cells: E. coli BL21 (DE3)
Sequence (P93836 whole entry M335N): as the sequence (P93836 whole entry) above, with M335N counted along it
procedure.summary: HPPD activity assay, mutant enzyme
Type: biochemical
metric.name: pKi
By convention, pKi is the negative base-10 log of a molar concentration.

**Query** // fetch pKi for CC1=NOC(c2c(Cl)ccc(C3=C(O)c4ncccc4N(CC(F)F)S3(=O)=O)c2Cl)C1 (stereo not shown) ; system: Arabidopsis HPPD variant M335N (Arabidopsis thaliana, UniProt P93836, M335N)
**Result** 7.70
